tgt: KRAS G12S (Homo sapiens (Human), UniProt P01116+P62937, G12S)
Sequence (P01116-2 other isoform, or with tags, fused parts or gaps G12S): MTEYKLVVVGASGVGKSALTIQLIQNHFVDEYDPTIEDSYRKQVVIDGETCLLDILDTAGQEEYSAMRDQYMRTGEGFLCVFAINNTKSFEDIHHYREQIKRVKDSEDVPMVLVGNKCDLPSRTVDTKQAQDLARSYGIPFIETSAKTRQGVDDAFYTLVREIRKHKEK
Sequence (P62937 whole entry): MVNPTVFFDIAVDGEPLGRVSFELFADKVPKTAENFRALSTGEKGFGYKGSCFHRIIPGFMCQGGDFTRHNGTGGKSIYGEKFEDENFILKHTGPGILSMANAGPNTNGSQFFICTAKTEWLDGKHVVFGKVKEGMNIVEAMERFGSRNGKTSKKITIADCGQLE
assay explanation: Ras-Raf (BRAF RBD) disruption / FRET / MOA assay, KRAS G12S
Format: biochemical
assay conditions: Ras-Raf disruption/FRET/MOA assay; class symbols; read-out: KRAS G12S FRET data IC50
pIC50: −log10 of the molar value.
For each record, write down the corresponding pIC50.

Lab note: need pIC50 for C=CC(=O)C1CC[C@H](C(=O)N(C)[C@H](C(=O)N[C@H]2Cc3nsc(n3)-c3ccc4c(c3)c(c(-c3cccnc3[C@H](C)OC)n4CC)CC(C)(C)COC(=O)[C@@H]3CCCN(N3)C2=O)C(C)C)C1 (some centres unmarked) on KRAS G12S (Homo sapiens (Human), UniProt P01116+P62937, G12S), anyone have it?
5.00 to 6.00

// next record C=CC(=O)Nc1ncc(C(=O)N(C)[C@H](C(=O)N[C@H]2Cc3cccc(c3)-c3ccc4c(c3)c(c(-c3cccnc3[C@H](C)OC)n4CC)CC(C)(C)COC(=O)[C@@H]3CCCN(N3)C2=O)C(C)C)n1C (atropisomer, axis not shown) [Example A475]
5.00 to 6.00

====

tgt: K-Ras G12C (Homo sapiens (Human), UniProt P01116+P62937, G12C)
Sequence (P01116-2 other isoform, or with tags, fused parts or gaps G12C, one chain of several): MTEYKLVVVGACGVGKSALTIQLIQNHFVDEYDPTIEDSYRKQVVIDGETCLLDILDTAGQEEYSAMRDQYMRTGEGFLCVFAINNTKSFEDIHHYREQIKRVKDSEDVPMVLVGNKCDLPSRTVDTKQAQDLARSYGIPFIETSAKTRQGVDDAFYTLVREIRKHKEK
assay explanation: Ras-Raf (BRAF RBD) disruption / FRET / MOA assay, KRAS G12C
Format: biochemical
assay conditions: KRAS G12C; Ras-Raf disruption/FRET/MOA assay; read-out: IC50* KRAS G12C FRET data
pIC50: −log10 of the molar value.
Kindly supply the reported pIC50 values for the records listed here.

Which pIC50 value is on record for CCn1c(-c2cccnc2[C@H](C)OC)c2c3cc(ccc31)-c1cc(O)cc(c1)C[C@H](NC(=O)[C@H](C(C)C)N(C)C(=O)[C@H]1CCN(C(=O)C#CCN(C)C)C1)C(=O)N1CCC[C@H](N1)C(=O)OCC(C)(C)C2 (atropisomer, axis not shown) [Example A131] ?
> 8.00

// repeat for C=CC(=O)N(C)CCN1CCN(C(=O)N(C)[C@H](C(=O)N[C@H]2Cc3cccc(c3)-c3ccc4c(c3)c(c(-c3cccnc3[C@H](C)OC)n4CC)CC(C)(C)COC(=O)[C@@H]3CCCN(N3)C2=O)C(C)C)C[C@@H]1C (atropisomer, axis not shown) [Example A570] and report
6.00 to 7.00

Same for C=CS(=O)(=O)N1CCC(C(=O)N(C)[C@H](C(=O)N[C@H]2Cc3cccc(c3)-c3ccc4c(c3)c(c(-c3cncnc3)n4CC)CC(C)(C)COC(=O)[C@@H]3CCCN(N3)C2=O)C(C)C)C1 (single isomer, unassigned) [Example A171]
5.00 to 6.00

How about this compound: CO[C@@H](C)c1ncccc1-c1c2c3cc(ccc3n1CC(F)(F)F)-c1csc(n1)C[C@H](NC(=O)[C@H](C(C)C)N(C)C(=O)N1CCC3(CC1)CN(C(=O)/C=C/CF)C3)C(=O)N1CCC[C@H](N1)C(=O)OCC(C)(C)C2 (atropisomer, axis not shown) [Example A602]
7.00 to 8.00

CCn1c(-c2cccnc2[C@H](C)OC)c2c3cc(ccc31)-c1cc(cc(C(F)F)c1)C[C@H](NC(=O)[C@H](C(C)C)N(C)C(=O)[C@H]1CCN(C(=O)C#CC(C)(C)N3CCC3)C1)C(=O)N1CCC[C@H](N1)C(=O)OCC(C)(C)C2 (atropisomer, axis not shown) [Example A466] , same question.
7.00 to 8.00

For C=CC(=O)N1CC(OCC(C(=O)N[C@H]2Cc3cc(cc(C(F)F)c3)-c3ccc4c(c3)c(c(-c3cccnc3[C@H](C)OC)n4CC(F)(F)F)CC(C)(C)COC(=O)[C@@H]3CCCN(N3)C2=O)C(C)C)C1 (mixture of isomers) [Example A428] then?
< 5.00

Quick one: CCn1c(-c2cncnc2)c2c3cc(ccc31)-c1cc(O)cc(c1)C[C@H](NC(=O)[C@H](C(C)C)N(C)C(=O)[C@H]1CCN(C(=O)C#CCN3CCOCC3)C1)C(=O)N1CCC[C@H](N1)C(=O)OCC(C)(C)C2 [Example A176]
> 8.00

// repeat for CCn1c(-c2cccnc2[C@H](C)OC)c2c3cc(ccc31)-c1cc(O)cc(c1)C[C@H](NC(=O)[C@H](C(C)C)N(C)C(=O)c1ccc(NC(=O)/C=C/CN(C)C)nc1)C(=O)N1CCC[C@H](N1)C(=O)OCC(C)(C)C2 (atropisomer, axis not shown) [Example A249] and report
6.00 to 7.00

====

Provide the reported pIC50 of each item.
tgt: K-Ras G13C (Homo sapiens (Human), UniProt P01116+P62937, G13C)
Sequence (P01116-2 other isoform, or with tags, fused parts or gaps G13C): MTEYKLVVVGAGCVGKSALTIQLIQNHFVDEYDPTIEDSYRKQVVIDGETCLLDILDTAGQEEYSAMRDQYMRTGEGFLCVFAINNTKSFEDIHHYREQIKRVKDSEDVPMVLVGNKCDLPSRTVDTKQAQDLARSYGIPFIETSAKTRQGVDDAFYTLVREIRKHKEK
Sequence (P62937 whole entry): as the sequence (P62937 whole entry) above
assay explanation: Ras-Raf (BRAF RBD) disruption / FRET / MOA assay, KRAS G13C
Type: biochemical
assay conditions: KRAS G13C; Ras-Raf disruption/FRET/MOA assay; read-out: IC50* KRAS G13C FRET data
pIC50: −log10 of the molar value.

What value of pIC50 has been reported for the following molecule? C=CC(=O)N1CCO[C@H]2CN(C(=O)N(C)[C@H](C(=O)N[C@H]3Cc4cccc(c4)-c4ccc5c(c4)c(c(-c4cccnc4[C@H](C)OC)n5CC)CC(C)(C)COC(=O)[C@@H]4CCCN(N4)C3=O)C(C)C)C[C@H]21 (atropisomer, axis not shown)
7.00 to 8.00

Here is the next molecule: `CCn1c(-c2cccnc2[C@H](C)OC)c2c3cc(ccc31)-c1cccc(c1)C[C@H](NC(=O)[C@H](C(C)C)N(C)C(=O)[C@H]1CCN(C(=O)C#C[C@]3(C)CCCN3C)C1)C(=O)N1CCC[C@H](N1)C(=O)OCC(C)(C)C2`
5.00 to 6.00

Thanks! And CCn1c(-c2cccnc2[C@H](C)OC)c2c3cc(ccc31)N1CCO[C@@H](C[C@H](NC(=O)[C@H](C(C)C)N(C)C(=O)[C@@]3(F)CCC(C(=O)C#CC(C)(C)N4CCC4)C3)C(=O)N3CCC[C@H](N3)C(=O)OCC(C)(C)C2)C1 (some centres unmarked) ?
6.00 to 7.00

Could you do the same for C=CC(=O)N1C[C@H](C)N(C(=O)N(C)[C@H](C(=O)N[C@H]2Cc3nc(cs3)-c3ccc4c(c3)c(c(-c3cccnc3[C@H](C)OC)n4CC)CC(C)(C)COC(=O)[C@@H]3CCCN(N3)C2=O)C(C)C)CC12CC2 (atropisomer, axis not shown) , please?
6.00 to 7.00

And CCn1c(-c2cccnc2[C@H](C)OC)c2c3cc(ccc31)-c1cccc(c1)C[C@H](NC(=O)[C@H](C(C)C)N1CO[C@]3(CCN(C(=O)C#CC(C)(C)N4CCC4)C3)C1=O)C(=O)N1CCC[C@H](N1)C(=O)OCC(C)(C)C2 (atropisomer, axis not shown) ?
6.00 to 7.00

Quick one: C/C=C(\C)S(=O)(=O)N1CC[C@H](C(=O)N(C)[C@H](C(=O)N[C@H]2Cc3cccc(c3)-c3ccc4c(c3)c(c(-c3cccnc3[C@H](C)OC)n4CC)CC(C)(C)COC(=O)[C@@H]3CCCN(N3)C2=O)C(C)C)C1 (atropisomer, axis not shown)
5.00 to 6.00

// query: `CCn1c(-c2cncnc2)c2c3cc(ccc31)-c1cccc(c1)C[C@H](NC(=O)[C@H](C(C)C)N(C)C(=O)[C@H]1CCN(C(=O)C#CCN3CCOCC3)C1)C(=O)N1CCC[C@H](N1)C(=O)OCC(C)(C)C2`
< 5.00

Now give it for C=CC(=O)N1CC2(CCN2C(=O)N(C)[C@H](C(=O)N[C@H]2Cc3cccc(c3)-c3ccc4c(c3)c(c(-c3cccnc3[C@H](C)OC)n4CC)CC(C)(C)COC(=O)[C@@H]3CCCN(N3)C2=O)C(C)C)C1 (atropisomer, axis not shown) too.
6.00 to 7.00

====

tgt: KRAS G12D (Homo sapiens (Human), UniProt P01116+P62937, G12D)
Sequence (P01116-2 other isoform, or with tags, fused parts or gaps G12D): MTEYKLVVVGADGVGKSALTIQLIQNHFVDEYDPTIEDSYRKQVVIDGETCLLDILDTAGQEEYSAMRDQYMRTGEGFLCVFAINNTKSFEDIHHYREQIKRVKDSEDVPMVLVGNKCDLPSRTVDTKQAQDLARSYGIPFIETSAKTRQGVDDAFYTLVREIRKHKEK
Sequence (P62937 whole entry): as the sequence (P62937 whole entry) above
assay explanation: Ras-Raf (BRAF RBD) disruption / FRET / MOA assay, KRAS G12D
Type: biochemical
assay conditions: Ras-Raf disruption/FRET/MOA assay; class symbols; read-out: KRAS G12D FRET data IC50
observable: IC50

Can you look up the measured IC50 of C=CC(=O)C1C[C@@H](C(=O)N(C)[C@H](C(=O)N[C@H]2Cc3cc(O)cc(c3)-c3ccc4c(c3)c(c(-c3ccccc3CCOC)n4CC)CC(C)(C)COC(=O)[C@@H]3CCCN(N3)C2=O)C(C)C)[C@@H](OC)N1 (stereo partly shown) [Example A214] for me?
> 10 µM

How about this molecule: C=CC(=O)N1CC[C@H](C(=O)N(C)[C@H](C(=O)N[C@H]2Cc3cc(O)cc(c3)-c3ccc4c(c3)c(c(-c3cccc5c3COC5)n4CC)CC(C)(C)COC(=O)[C@@H]3CCCN(N3)C2=O)C(C)C)C1 [Example A227]
> 10 µM

Do the same for C=CC(=O)N1CCC[C@]12CCN(C(=O)N(C)[C@H](C(=O)N[C@H]1Cc3nc(cs3)-c3ccc4c(c3)c(c(-c3cccnc3[C@H](C)OC)n4CC)CC(C)(C)COC(=O)[C@@H]3CCCN(N3)C1=O)C(C)C)C2 (atropisomer, axis not shown) [Example A548] please
1 to 10 µM

Now this one: C=CC(=O)N1CC[C@H](C(=O)N(C)[C@H](C(=O)N[C@H]2Cc3cc(OC(=O)CCC(=O)O)cc(c3)-c3ccc4c(c3)c(c(-c3ccccc3CCOC)n4CC)CC(C)(C)COC(=O)[C@@H]3CCCN(N3)C2=O)C(C)C)C1 [Example A032]
> 10 µM
